Answer each item with its documented ratio of its own IC50 to that of the control peptide.
Target: T1, human MHC class II allotype HLA-DRB1*0101 (human)
T1 construct: Source and construct of the MHC protein in the assay are not described
Experiment: competitive MHC class II binding assay; competitor control peptide influenza haemagglutinin 307-319;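 note: each test peptide was scored on how well it displaces the known control binder from each human MHC class II allotype studied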
Answers are plain numbers.

A selection of reference data follows.
• DGVLACAIATHAKIR (Synthetic peptide) [HDM26A] = 42.3
• KPFQLEAVFEANQNT (Synthetic peptide, 88.7% purity) [HDM21] = 92
• KPFQLEAVFEANQNTK (Synthetic peptide, 90.1% purity) [HDM21A] = 200

Query :: Value lookup for ratio of its own IC50 to that of the control peptide; key = RGKPFQLEAVFEANQNT (Synthetic peptide, 82.6% purity) [HDM21B]
Result :: 13.5
